molecular target: JAK1 JH1 catalytic (human) (UniProt P23458); assay: radiometric filter-binding kinase assay, Kinase HotSpot; conditions: compound 0.5 µM; ATP 10 µM
Sequence (P23458 whole entry, looked up): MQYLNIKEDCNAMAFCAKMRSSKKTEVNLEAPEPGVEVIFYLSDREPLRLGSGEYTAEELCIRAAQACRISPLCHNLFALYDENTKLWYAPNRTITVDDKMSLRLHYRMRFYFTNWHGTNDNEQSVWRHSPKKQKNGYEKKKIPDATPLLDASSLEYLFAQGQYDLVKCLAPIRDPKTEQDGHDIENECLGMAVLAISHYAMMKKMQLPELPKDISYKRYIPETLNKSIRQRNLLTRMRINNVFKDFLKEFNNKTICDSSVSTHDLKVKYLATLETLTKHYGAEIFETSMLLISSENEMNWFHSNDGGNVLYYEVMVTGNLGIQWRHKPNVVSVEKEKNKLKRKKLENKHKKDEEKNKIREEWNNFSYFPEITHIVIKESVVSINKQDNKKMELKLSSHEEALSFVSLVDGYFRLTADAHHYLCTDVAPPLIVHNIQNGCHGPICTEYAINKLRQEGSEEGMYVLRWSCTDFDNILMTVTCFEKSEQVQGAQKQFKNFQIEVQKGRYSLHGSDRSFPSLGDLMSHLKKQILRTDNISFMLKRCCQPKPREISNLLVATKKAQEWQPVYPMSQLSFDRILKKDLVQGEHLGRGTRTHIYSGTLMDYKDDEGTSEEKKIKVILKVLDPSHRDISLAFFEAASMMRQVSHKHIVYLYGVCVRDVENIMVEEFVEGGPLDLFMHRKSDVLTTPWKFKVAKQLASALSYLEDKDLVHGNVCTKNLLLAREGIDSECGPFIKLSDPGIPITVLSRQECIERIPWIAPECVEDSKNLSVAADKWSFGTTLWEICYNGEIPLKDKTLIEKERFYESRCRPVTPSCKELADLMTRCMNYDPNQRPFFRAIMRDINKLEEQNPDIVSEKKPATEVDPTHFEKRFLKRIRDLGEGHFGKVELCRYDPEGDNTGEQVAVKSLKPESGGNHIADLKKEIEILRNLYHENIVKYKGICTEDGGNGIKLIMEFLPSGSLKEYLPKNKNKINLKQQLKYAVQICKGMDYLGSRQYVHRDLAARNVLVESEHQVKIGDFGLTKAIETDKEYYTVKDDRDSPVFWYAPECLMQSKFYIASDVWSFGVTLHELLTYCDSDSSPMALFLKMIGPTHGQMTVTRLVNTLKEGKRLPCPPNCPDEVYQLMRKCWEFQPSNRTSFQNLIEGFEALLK
MEASUREMENT_LABEL: residual activity (%)

| STRUCTURE_SMILES | ASSAY_SYSTEM | MEASUREMENT_LABEL | READOUT_VALUE |
| --- | --- | --- | --- |
| COc1ccc(COc2ccc(Cc3cnc(N)nc3N)cc2OC)cc1 | JAK1 JH1 catalytic (human) (UniProt P23458) | residual activity | 105 |
| N#C/C(=C(/N)Sc1ccc(N)cc1)c1ccccc1C(F)(F)F | JAK1 JH1 catalytic (human) (UniProt P23458) | residual activity | 106 |
| Cc1ccc(S(=O)(=O)/C=C/C#N)cc1 | JAK1 JH1 catalytic (human) (UniProt P23458) | residual activity | 98.2 |
| COc1ccc2c(c[n+](C)c3c4cc5c(cc4ccc23)OCO5)c1OC | JAK1 JH1 catalytic (human) (UniProt P23458) | residual activity | 88.5 |
| CC(C)N(CCC(=O)c1ccc2ccccc2c1)Cc1ccccc1 | JAK1 JH1 catalytic (human) (UniProt P23458) | residual activity | 112 |
| O=S(=O)(c1cccc2cnccc12)N1CCCNCC1 | JAK1 JH1 catalytic (human) (UniProt P23458) | residual activity | 111 |
| c1ccc(-c2n[nH]c3c2oc2ccccc23)cc1 | JAK1 JH1 catalytic (human) (UniProt P23458) | residual activity | 104 |
| CCN(CC)CCNC(=O)c1c(C)[nH]c(/C=C2\C(=O)Nc3ccc(Cl)cc32)c1C | JAK1 JH1 catalytic (human) (UniProt P23458) | residual activity | 65.8 |
| O=c1cc(N2CCOCC2)oc2c1ccc1ccccc12 | JAK1 JH1 catalytic (human) (UniProt P23458) | residual activity | 104 |
| Nc1ccc2ncnc(NCCc3ccc(Oc4ccccc4)cc3)c2c1 | JAK1 JH1 catalytic (human) (UniProt P23458) | residual activity | 94.6 |
| O=C(Nc1cccc(Nc2nccc(Nc3cccc(C(F)(F)F)c3)n2)c1)C1CC1 | JAK1 JH1 catalytic (human) (UniProt P23458) | residual activity | 74 |
| CCCC(=O)Oc1ccc2[nH]c(C(=O)c3cc4ccccc4[nH]3)cc2c1 | JAK1 JH1 catalytic (human) (UniProt P23458) | residual activity | 104 |
| COc1cc2ncnc(Nc3cccc(Cl)c3)c2cc1OC | JAK1 JH1 catalytic (human) (UniProt P23458) | residual activity | 90.4 |
| CCN(CC)C(=O)c1ccc(Nc2nc(OCC3CCCCC3)c3nc[nH]c3n2)cc1 | JAK1 JH1 catalytic (human) (UniProt P23458) | residual activity | 51.8 |
| CC(=O)c1ccc(N2CCOCC2)cc1O | JAK1 JH1 catalytic (human) (UniProt P23458) | residual activity | 104 |
| CC[n+]1c(/C=C/N(C)c2ccccc2)n(-c2ccccc2)c2ccc(-c3nc4ccccc4s3)cc21 | JAK1 JH1 catalytic (human) (UniProt P23458) | residual activity | 104 |
| CNC(=O)c1cc(Oc2ccc(NC(=O)Nc3ccc(Cl)c(C(F)(F)F)c3)cc2)ccn1 | JAK1 JH1 catalytic (human) (UniProt P23458) | residual activity | 110 |
